Cited source for all entries: ChEMBL document CHEMBL1130499

system tested: GABA-A receptor; anion channel
test summary: Displacement of [3H]flunitrazepine binding from GABA-A central benzodiazepine receptor of rat cerebral cortical membrane
Entries get a class label from measured Ki. See ranges: bin A: < 80 nM; bin B: ≥ 80 nM and < 300 nM; bin C: ≥ 300 nM

GET /class?item= "O=c1cc(-c2ccccc2)oc2ccc([N+](=O)[O-])cc12"
bin B

Another compound to look at: "O=c1cc(-c2ccccc2[N+](=O)[O-])oc2ccc(Br)cc12"
bin B

Continue with "O=c1cc(-c2cccc(Cl)c2)oc2ccccc12"
bin C

Same again, this time with "O=c1cc(-c2cccc([N+](=O)[O-])c2)oc2ccc(Cl)cc12"
bin A

Let us now turn to "O=c1cc(-c2cccc(Br)c2)oc2ccccc12"
bin C

Another compound to look at: "O=c1cc(-c2ccccc2[N+](=O)[O-])oc2ccccc12"
bin C

Check "O=c1cc(-c2ccccc2)oc2ccc(F)cc12" too.
bin C

Please do the same for "O=c1c(Br)c(-c2ccccc2)oc2ccc(Br)cc12" as well.
bin C

Follow-up item: "O=c1cc(-c2ccc([N+](=O)[O-])cc2)oc2ccc([N+](=O)[O-])cc12"
bin C

Consider next the compound "O=c1cc(-c2ccc(Br)cc2)oc2ccccc12" in the same way.
bin C

Then what about the compound "O=c1cc(-c2cccc([N+](=O)[O-])c2)oc2ccc(F)cc12" ?
bin B

Try this compound too: "O=c1cc(-c2cccc(Br)c2)oc2ccc([N+](=O)[O-])cc12"
bin A

Lookup "O=c1cc(-c2ccccc2)oc2ccccc12"
bin C

Lookup "O=c1cc(-c2cccc([N+](=O)[O-])c2)oc2ccc([N+](=O)[O-])cc12"
bin A

Further, for "O=c1cc(-c2cc([N+](=O)[O-])cc([N+](=O)[O-])c2)oc2ccccc12" ?
bin C

Could you do the same for "O=c1cc(-c2ccccc2)oc2ccc(Cl)cc12" , please?
bin B

Quick one: "O=c1cc(-c2ccccc2)oc2ccc(Br)cc12"
bin A

Now the same for "O=c1c(Br)c(-c2cccc([N+](=O)[O-])c2)oc2ccccc12"
bin C

// same read-out, input: "O=c1c(Br)c(-c2ccccc2)oc2ccccc12"
bin C

Same again, this time with "O=c1cc(-c2cccc(Br)c2)oc2ccc(Br)cc12"
bin A

Field entry: "O=c1cc(-c2ccc([N+](=O)[O-])cc2)oc2ccc(Br)cc12"
bin B

Moving on to the next compound: "O=c1cc(-c2cccc([N+](=O)[O-])c2)oc2ccccc12"
bin B

How about this compound: "O=c1cc(-c2ccccc2[N+](=O)[O-])oc2ccc([N+](=O)[O-])cc12"
bin C
